Target: tau protein (Homo sapiens)
Construct: fused on or other part: Split fluorescent-protein halves for BiFC are fused to tau; In the published tau-BiFC line these are Venus VN173 and VC155
Sequence (P10636 2-441 isoform P10636-8 limits assumed): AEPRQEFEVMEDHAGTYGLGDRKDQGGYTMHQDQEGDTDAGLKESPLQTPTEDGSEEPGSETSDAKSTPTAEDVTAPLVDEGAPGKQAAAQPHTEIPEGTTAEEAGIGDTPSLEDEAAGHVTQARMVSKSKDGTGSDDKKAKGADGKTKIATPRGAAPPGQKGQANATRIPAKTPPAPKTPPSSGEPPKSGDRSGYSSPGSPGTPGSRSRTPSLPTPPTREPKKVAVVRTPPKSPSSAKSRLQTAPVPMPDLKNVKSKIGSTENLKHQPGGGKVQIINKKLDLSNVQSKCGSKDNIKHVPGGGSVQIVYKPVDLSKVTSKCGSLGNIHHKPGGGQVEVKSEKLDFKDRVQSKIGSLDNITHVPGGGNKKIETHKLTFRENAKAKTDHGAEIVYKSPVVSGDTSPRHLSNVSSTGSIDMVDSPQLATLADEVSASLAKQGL
Test: Tau-BiFC cell model: inhibition of tau protein aggregation
Assay type: cell-based
Conditions: 48 h; compound 10 μM; BiFC fluorescence, Forskolin-only group = 100% tau protein-aggregated state; read-out: Response (% @10 μM)
Consider the cut-off 40%. If the recorded remaining activity at 10 µM is strictly smaller, the label is condition met; if not, the label is condition not met.

N#CC(C#N)=NNc1ccc(NS(=O)(=O)c2ccc(F)cc2)nc1: condition not met
N#CC(C#N)=NNc1ccc(C(=O)Nc2cccnc2)nc1: condition met
N#CC(C#N)=NNc1ccc(OCc2ccc(C(F)(F)F)cc2)nc1: condition met
Cc1cnc(NC(=O)c2ccc(NN=C(C#N)C#N)cn2)cn1: condition met
Cc1cnc(C(=O)Nc2ccc(NN=C(C#N)C#N)c(Cl)c2)cn1: condition met
N#CC(C#N)=NNc1ccc(NC(=O)c2cccs2)nc1: condition met
Cc1ccc(NC(=O)c2ccc(NN=C(C#N)C#N)c(C)c2)cn1: condition not met
N#CC(C#N)=NNc1ccc(C(=O)Nc2ccc(Cl)cc2)nc1: condition not met
N#CC(C#N)=NNc1ccc(OCc2cccnn2)cc1: condition met
COc1cc(C(=O)Nc2ccc(C)nc2)ccc1NN=C(C#N)C#N: condition not met
Cc1cnc(NC(=O)c2ccc(NN=C(C#N)C#N)c(F)c2)cn1: condition met
N#CC(C#N)=NNc1ccc(Oc2ccncc2)c(F)c1: condition not met
N#CC(C#N)=NNc1ccc(NS(=O)(=O)c2cccnc2)nc1: condition not met
N#CC(C#N)=NNc1ccc(Oc2ccccc2)c(F)c1: condition met
Cc1cnc(C(=O)Nc2ccc(NN=C(C#N)C#N)cc2F)cn1: condition met
N#CC(C#N)=NNc1ccc(NC(=O)c2ccc(F)cc2)nc1: condition met
N#CC(C#N)=NNc1ccc(OCc2cc3ccccc3s2)cc1: condition met
N#CC(C#N)=NNc1ccc(OCCc2ccc(C(F)(F)F)cc2)nc1: condition met
N#CC(C#N)=NNc1ccc(Oc2cccnc2)c(F)c1: condition met
Cc1cc(C(=O)Nc2ccc(NN=C(C#N)C#N)cn2)ccc1F: condition met
